# Target Desc: Cytochrome P450 3A4 (Homo sapiens, UniProt P08684)
# Sequence (P08684 whole entry): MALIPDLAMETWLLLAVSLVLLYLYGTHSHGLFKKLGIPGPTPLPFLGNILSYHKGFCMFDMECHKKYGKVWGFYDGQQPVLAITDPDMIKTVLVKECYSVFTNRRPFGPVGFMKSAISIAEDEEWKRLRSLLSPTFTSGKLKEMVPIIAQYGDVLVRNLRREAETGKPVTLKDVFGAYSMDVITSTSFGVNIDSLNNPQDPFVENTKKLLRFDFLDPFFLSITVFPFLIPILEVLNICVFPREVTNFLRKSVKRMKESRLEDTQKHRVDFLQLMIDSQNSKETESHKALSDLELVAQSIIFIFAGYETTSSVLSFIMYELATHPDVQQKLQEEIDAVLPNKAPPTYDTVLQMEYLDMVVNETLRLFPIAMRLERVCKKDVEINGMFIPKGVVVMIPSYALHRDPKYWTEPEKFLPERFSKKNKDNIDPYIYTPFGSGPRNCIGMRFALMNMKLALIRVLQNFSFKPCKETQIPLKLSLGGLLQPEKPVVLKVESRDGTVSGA
# Assay Comment: Inhibition of recombinant human CYP3A4 using midazolam as substrate
# Format: ADME
pIC50: −log10 of the molar value.
Property Measured: pIC50

Look up pIC50: CS(=O)(=O)n1cc2c(n1)CN([C@@H]1C[C@H](N)[C@@H](c3cc(F)ccc3F)O[C@@H]1C(F)(F)F)C2
< 4.00

###

# Target Desc: CYP1A2 (Homo sapiens, UniProt P05177)
# Sequence (P05177 whole entry): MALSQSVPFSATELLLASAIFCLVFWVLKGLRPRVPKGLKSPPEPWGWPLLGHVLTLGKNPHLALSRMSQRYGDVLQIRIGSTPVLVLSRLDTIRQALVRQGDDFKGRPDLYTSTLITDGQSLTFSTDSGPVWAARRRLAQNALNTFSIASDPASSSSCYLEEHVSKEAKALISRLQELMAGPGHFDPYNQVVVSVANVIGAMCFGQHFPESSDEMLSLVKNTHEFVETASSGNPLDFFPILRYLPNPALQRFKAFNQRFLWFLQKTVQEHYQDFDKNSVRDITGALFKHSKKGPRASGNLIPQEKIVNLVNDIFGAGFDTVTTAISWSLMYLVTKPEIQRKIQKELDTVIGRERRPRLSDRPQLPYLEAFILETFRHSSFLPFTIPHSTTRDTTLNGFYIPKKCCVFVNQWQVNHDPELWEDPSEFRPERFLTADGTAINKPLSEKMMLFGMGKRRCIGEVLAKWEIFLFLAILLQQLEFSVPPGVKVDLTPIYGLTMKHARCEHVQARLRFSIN
# Assay Comment: Stability assessed as recombinant human CYP1A2 mediated compound metabolism by measuring parent compound remaining after 30 mins relative to control
# Format: ADME
# Measurement Parameters: read-out: Stability
Property Measured: remaining at 0.5 h

Param readout= remaining at 0.5 h; system= CYP1A2 (Homo sapiens, UniProt P05177); entry= CS(=O)(=O)n1cc2c(n1)CN([C@@H]1C[C@H](N)[C@@H](c3cc(F)ccc3F)O[C@@H]1C(F)(F)F)C2 ; returns value.
> 95%

###

# Target Desc: Cytochrome P450 2D6 (Homo sapiens, UniProt P10635)
# Sequence (P10635 whole entry): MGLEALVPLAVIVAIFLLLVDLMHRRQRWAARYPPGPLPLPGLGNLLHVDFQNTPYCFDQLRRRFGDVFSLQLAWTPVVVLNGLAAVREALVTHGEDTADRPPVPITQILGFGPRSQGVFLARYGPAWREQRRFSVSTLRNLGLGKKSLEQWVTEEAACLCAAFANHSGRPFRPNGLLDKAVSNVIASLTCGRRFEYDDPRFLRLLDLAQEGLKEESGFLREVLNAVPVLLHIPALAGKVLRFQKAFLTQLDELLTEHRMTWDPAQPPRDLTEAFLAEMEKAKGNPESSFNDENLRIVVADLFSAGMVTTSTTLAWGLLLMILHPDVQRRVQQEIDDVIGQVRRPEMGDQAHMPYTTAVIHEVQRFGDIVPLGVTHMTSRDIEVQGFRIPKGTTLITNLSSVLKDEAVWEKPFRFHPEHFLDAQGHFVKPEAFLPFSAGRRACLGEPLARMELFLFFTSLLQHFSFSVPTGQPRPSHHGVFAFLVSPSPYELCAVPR
# Assay Comment: Inhibition of recombinant human CYP2D6
# Type: ADME
pIC50: −log10 of the molar value.
Property Measured: pIC50

Look up pIC50: CS(=O)(=O)n1cc2c(n1)CN([C@@H]1C[C@H](N)[C@@H](c3cc(F)ccc3F)O[C@@H]1C(F)(F)F)C2 [COFROGLIPTIN]
< 4.00

###

# Assay Comment: AUC in male Sprague-Dawley rat during 3-month repeated dose toxicology study
# Assay type: ADME
# Measurement Parameters: in vivo
Property Measured: AUC (µg·h/mL)
Numbers only here, please. The scale is µg·h/mL.

Look up AUC: CS(=O)(=O)n1cc2c(n1)CN([C@@H]1C[C@H](N)[C@@H](c3cc(F)ccc3F)O[C@@H]1C(F)(F)F)C2 [COFROGLIPTIN]
3600

###

# Target Desc: Cytochrome P450 2A6 (Homo sapiens)
# Sequence (P11509 whole entry): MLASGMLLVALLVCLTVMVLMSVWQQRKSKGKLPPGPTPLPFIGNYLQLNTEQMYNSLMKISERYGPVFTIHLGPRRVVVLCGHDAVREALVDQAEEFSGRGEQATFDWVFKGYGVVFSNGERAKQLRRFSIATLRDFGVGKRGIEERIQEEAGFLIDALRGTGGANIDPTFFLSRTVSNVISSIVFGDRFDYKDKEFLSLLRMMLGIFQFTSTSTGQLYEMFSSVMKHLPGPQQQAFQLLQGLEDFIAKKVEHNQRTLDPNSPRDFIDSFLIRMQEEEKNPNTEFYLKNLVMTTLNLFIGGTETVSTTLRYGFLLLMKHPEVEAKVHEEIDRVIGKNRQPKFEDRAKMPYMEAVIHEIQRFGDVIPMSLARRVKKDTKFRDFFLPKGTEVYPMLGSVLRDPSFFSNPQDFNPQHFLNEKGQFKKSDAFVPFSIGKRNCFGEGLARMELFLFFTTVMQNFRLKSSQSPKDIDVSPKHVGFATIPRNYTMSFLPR
# Assay Comment: Inhibition of recombinant human CYP2A6
# Format: ADME
pIC50: −log10 of the molar value.
Property Measured: pIC50

Param readout= pIC50; system= Cytochrome P450 2A6 (Homo sapiens); entry= CS(=O)(=O)n1cc2c(n1)CN([C@@H]1C[C@H](N)[C@@H](c3cc(F)ccc3F)O[C@@H]1C(F)(F)F)C2 ; returns value.
< 4.00
